SYSTEM UNDER TEST: Histone-lysine N-methyltransferase, H3 lysine-79 specific (Homo sapiens)
MEASURED QUANTITY: Ki (nM)
Give bare numbers, in nM.

Input CN(CCNC(=O)Nc1ccc(C(C)(C)C)cc1)CC1OC(n2cnc3c(N)ncnc32)[C@H](O)[C@@H]1O (stereo partly specified) [EPZ003647] , output reported Ki.
845

---

SYSTEM UNDER TEST: Histone-lysine N-methyltransferase, H3 lysine-79 specific (Homo sapiens, UniProt Q8TEK3)
Sequence (Q8TEK3 whole entry): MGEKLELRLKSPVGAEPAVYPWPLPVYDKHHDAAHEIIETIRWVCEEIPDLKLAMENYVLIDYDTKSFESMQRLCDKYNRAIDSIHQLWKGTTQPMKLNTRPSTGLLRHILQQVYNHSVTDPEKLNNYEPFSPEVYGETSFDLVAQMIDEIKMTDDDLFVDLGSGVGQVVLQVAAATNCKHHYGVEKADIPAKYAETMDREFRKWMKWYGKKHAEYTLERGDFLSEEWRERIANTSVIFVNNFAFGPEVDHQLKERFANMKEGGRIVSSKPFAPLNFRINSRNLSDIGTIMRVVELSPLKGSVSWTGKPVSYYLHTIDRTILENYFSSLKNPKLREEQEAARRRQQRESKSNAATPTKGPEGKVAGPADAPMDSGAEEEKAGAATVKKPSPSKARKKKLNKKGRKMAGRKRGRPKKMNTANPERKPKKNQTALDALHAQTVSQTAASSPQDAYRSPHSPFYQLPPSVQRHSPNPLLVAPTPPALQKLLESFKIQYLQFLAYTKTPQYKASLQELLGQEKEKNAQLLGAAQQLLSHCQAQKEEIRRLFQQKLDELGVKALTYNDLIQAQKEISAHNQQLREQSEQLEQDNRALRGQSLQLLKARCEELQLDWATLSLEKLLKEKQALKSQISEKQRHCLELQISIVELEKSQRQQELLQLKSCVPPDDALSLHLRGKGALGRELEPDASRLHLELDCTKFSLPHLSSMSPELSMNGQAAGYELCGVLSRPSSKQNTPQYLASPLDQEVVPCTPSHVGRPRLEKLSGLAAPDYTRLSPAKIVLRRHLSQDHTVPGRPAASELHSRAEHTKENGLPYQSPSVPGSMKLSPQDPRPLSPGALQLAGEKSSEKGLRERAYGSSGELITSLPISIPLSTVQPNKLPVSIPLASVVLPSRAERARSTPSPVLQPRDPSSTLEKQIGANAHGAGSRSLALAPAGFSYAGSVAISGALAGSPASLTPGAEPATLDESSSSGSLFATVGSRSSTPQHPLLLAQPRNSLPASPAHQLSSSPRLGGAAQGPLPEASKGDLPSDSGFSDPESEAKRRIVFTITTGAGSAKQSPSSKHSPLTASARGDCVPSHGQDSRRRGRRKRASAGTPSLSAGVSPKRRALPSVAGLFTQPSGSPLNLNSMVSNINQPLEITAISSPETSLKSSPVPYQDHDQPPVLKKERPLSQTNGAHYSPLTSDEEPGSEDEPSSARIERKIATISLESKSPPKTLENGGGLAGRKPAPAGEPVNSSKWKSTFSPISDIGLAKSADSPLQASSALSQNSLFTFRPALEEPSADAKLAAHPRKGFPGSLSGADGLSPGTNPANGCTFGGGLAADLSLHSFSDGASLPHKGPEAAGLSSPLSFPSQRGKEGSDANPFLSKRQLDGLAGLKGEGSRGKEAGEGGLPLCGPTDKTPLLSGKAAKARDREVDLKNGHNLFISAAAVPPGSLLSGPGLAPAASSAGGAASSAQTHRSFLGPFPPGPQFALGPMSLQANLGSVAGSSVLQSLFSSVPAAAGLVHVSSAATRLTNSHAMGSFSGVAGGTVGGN
MEASURED QUANTITY: Kd (nM)
Give bare numbers, in nM.

State its Kd for this molecule: CN(CCNC(=O)Nc1ccc(C(C)(C)C)cc1)CC1OC(n2cnc3c(N)ncnc32)[C@H](O)[C@@H]1O (stereo partly specified)
167

Source listed as BindingDB's records for doi:10.1111/cbdd.12050.
